Test system: BaF3
Assay: Antiproliferative activity against mouse BaF3 cells transfected with FLT3 ITD mutant assessed as cell growth inhibition incubated for 72 hrs by CCK-8 assay
Assay type: functional
readout-label: GI50 (nM)
Unit nM implied. Number only.

Below: 6 compounds and their reported GI50.
| structure | unit-of-measurement | measured |
| --- | --- | --- |
| CC(=O)Nc1cc(Oc2ccc(CC(=O)Nc3ccccc3)cc2)ncn1 | nM | 162 |
| Cc1ccc(NC(=O)Nc2ccc(Oc3cc(N4CCNC[C@H]4C)ncn3)cc2)cc1C(F)(F)F | nM | 86 |
| Cc1ccc(NC(=O)Nc2ccc(Oc3cc(NCc4ccccc4)ncn3)cc2)cc1C(F)(F)F | nM | 4 |
| CC(=O)Nc1cc(Oc2ccc(NC(=O)Cc3cccc(C(F)(F)F)c3)cc2)ncn1 | nM | 37 |
| COc1cc2ncnc(Oc3ccc(CC(=O)Nc4cnn(C(C)C)c4)cc3)c2cc1OC | nM | 2 |
| CC(=O)Nc1cc(Oc2ccc(CC(=O)Nc3ccc(C(F)(F)F)cc3)cc2)ncn1 | nM | 4 |

(Q) Sample "CC(=O)Nc1cc(Oc2ccc(CC(=O)Nc3ccc(C)c(C(F)(F)F)c3)cc2)ncn1" — what was its GI50?
(A) 4.3

(Q) Param item: "Cc1ccc(NC(=O)Nc2ccc(Oc3cc(N4CCN[C@H](C)C4)ncn3)cc2)cc1C(F)(F)F"
(A) 300

====

Tested on: BaF3
Assay: Antiproliferative activity against mouse BaF3 cells transfected with TEL-fused FLT3 assessed as cell growth inhibition incubated for 72 hrs by CCK-8 assay
Assay type: functional
readout-label: GI50 (nM)
Unit nM implied. Number only.

| structure | tested-on | GI50 (nM) |
| --- | --- | --- |
| CC(=O)Nc1cc(Oc2ccc(NC(=O)Cc3ccc(C(F)(F)F)cc3Cl)cc2)ncn1 | BaF3 | 744 |
| CC(=O)Nc1cc(Oc2ccc(NC(=O)Cc3ccc(Cl)c(Cl)c3)cc2)ncn1 | BaF3 | 30 |

(Q) For BaF3, provide GI50 of "COc1cc2ncnc(Oc3ccc(CC(=O)Nc4cnn(C(C)C)c4)cc3)c2cc1OC" please.
(A) 3.1

(Q) Param item: "CC(=O)Nc1cc(Oc2ccc(NC(=O)Cc3ccc(C(F)(F)F)cc3)cc2)ncn1"
(A) 14

(Q) Param item: "Cc1ccc(NC(=O)Nc2ccc(Oc3cc(/N=C/N(C)C)ncn3)cc2)cc1C(F)(F)F"
(A) 3

====

System: BaF3
Experiment: Antiproliferative activity against mouse BaF3 cells transfected with TEL-fused cKIT assessed as cell growth inhibition incubated for 72 hrs by CCK-8 assay
Assay type: functional
Labelling field: enter satisfied if recorded GI50 is less than 200 nM. Enter not satisfied if it equals or exceeds that cut-off.

| structure | label |
| --- | --- |
| CC(=O)Nc1cc(Oc2ccc(CC(=O)Nc3ccccc3)cc2)ncn1 | not satisfied |
| C=CC(=O)Nc1cc(Oc2ccc(NC(=O)Nc3ccc(C)c(C(F)(F)F)c3)cc2)ncn1 | not satisfied |
| CC(=O)Nc1cc(Oc2ccc(NC(=O)Cc3cccc(C(F)(F)F)c3)cc2)ncn1 | not satisfied |

(Q) Is GI50 of "CC(=O)Nc1cc(Oc2ccc(NC(=O)Nc3cc(-n4cnc(C)c4)cc(C(F)(F)F)c3)cc2)ncn1" strictly below 200 nM?
(A) satisfied

(Q) Param item: "CCC(=O)Nc1cc(Oc2ccc(NC(=O)Nc3ccc(C)c(C(F)(F)F)c3)cc2)ncn1"
(A) satisfied

(Q) Param item: "COc1cc2ncnc(Oc3ccc(CC(=O)Nc4cnn(C(C)C)c4)cc3)c2cc1OC"
(A) satisfied

(Q) Param item: "CC(=O)Nc1cc(Oc2ccc(NC(=O)Cc3ccc(C(F)(F)F)cc3Cl)cc2)ncn1"
(A) not satisfied

(Q) Param item: "CC(=O)Nc1cc(Oc2ccc(NC(=O)Cc3ccc(-c4ccccc4)cc3)cc2)ncn1"
(A) not satisfied

(Q) Param item: "CC(=O)Nc1cc(Oc2ccc(NC(=O)Cc3cccc4ccccc34)cc2)ncn1"
(A) not satisfied

====

Test: Cmax in Sprague-Dawley rat at 1 mg/kg, iv
Format: ADME, organism-based
Parameters: dose 1 mg/kg, route iv
Conditions: in vivo
readout-label: Cmax (ng/mL)
Unit ng/mL implied. Number only.

(Q) Sample "CC(=O)Nc1cc(Oc2ccc(NC(=O)Cc3ccccc3C(F)(F)F)cc2)ncn1" — what was its Cmax?
(A) 1030

====

Test: AUC (0 to infinity) in Sprague-Dawley rat at 10 mg/kg, po
Type: ADME, organism-based
Parameters: dose 10 mg/kg, route po
Settings: in vivo
readout-label: AUC(0-inf) (ng·h/mL)
Unit ng·h/mL implied. Number only.

(Q) Sample "CC(=O)Nc1cc(Oc2ccc(NC(=O)Cc3ccccc3C(F)(F)F)cc2)ncn1" — what was its AUC(0-inf)?
(A) 28000

====

Test: Tmax in Sprague-Dawley rat at 1 mg/kg, iv
Format: ADME, organism-based
Conditions: in vivo
readout-label: Tmax (min)
Unit min implied. Number only.

(Q) Sample "CC(=O)Nc1cc(Oc2ccc(NC(=O)Cc3ccccc3C(F)(F)F)cc2)ncn1" — what was its Tmax?
(A) 1.2

====

Experiment: Cytotoxicity against CHO cells assessed as inhibition of cell growth
Format: toxicity, cell-based, Cricetulus griseus
Conditions: chinese hamster
readout-label: GI50

(Q) Sample "CC(=O)Nc1cc(Oc2ccc(NC(=O)Cc3ccccc3C(F)(F)F)cc2)ncn1" — what was its GI50?
(A) > 10 µM

====

Biological target: Receptor-type tyrosine-protein kinase FLT3 (Homo sapiens, UniProt P36888)
Sequence (P36888 whole entry): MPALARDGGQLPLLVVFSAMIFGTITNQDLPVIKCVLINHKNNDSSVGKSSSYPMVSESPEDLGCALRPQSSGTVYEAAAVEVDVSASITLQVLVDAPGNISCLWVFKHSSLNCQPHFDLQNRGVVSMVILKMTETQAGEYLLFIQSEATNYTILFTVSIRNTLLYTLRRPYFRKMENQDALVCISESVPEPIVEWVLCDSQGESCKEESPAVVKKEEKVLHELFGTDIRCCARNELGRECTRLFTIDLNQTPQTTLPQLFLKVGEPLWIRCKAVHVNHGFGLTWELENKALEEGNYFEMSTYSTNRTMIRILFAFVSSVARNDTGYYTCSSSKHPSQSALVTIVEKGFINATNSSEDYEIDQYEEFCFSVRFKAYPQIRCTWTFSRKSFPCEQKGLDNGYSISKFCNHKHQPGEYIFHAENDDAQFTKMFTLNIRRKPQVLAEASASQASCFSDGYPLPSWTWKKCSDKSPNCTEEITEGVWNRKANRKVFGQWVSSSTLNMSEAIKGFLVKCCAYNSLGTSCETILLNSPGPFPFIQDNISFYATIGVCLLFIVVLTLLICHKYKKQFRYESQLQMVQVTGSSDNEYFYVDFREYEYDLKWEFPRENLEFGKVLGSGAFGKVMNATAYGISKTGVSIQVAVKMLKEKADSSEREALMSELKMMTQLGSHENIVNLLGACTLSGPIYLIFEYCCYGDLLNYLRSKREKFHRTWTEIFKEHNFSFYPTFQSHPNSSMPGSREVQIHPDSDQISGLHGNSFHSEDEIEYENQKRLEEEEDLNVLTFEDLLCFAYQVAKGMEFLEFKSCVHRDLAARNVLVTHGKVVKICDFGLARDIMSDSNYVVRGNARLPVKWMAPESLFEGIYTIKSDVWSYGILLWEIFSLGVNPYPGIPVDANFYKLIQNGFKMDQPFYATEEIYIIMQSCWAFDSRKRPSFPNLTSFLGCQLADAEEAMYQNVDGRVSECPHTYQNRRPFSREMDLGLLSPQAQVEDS
readout-label: IC50 (µM)
Unit µM implied. Number only.

(Q) Sample "CC(=O)Nc1cc(Oc2ccc(NC(=O)Cc3ccccc3C(F)(F)F)cc2)ncn1" — what was its IC50?
(A) 0.0908

====

System: BaF3
Assay: Antiproliferative activity against mouse BaF3 cells transfected with FLT3 ITD mutant assessed as cell growth inhibition incubated for 72 hrs by CCK-8 assay
Format: functional
readout-label: log10(GI50) (log10 of the value in nM)
A value of 2 here means GI50 of 100 in nM, since values are log10.

Below: 4 compounds and their reported log10(GI50).
| structure | measured |
| --- | --- |
| C=CC(=O)Nc1cc(Oc2ccc(NC(=O)Nc3ccc(C)c(C(F)(F)F)c3)cc2)ncn1 | 0.30 |
| CC(=O)Nc1cc(Oc2ccc(NC(=O)Cc3ccc4ccccc4c3)cc2)ncn1 | 1.28 |
| Cc1ccc(NC(=O)Nc2ccc(Oc3cc(/N=C/N(C)C)ncn3)cc2)cc1C(F)(F)F | 0.60 |
| Cc1ccc(NC(=O)Nc2ccc(Oc3cc(NCCN)ncn3)cc2)cc1C(F)(F)F | -0.70 |

(Q) Sample "COCCNc1cc(Oc2ccc(NC(=O)Nc3ccc(C)c(C(F)(F)F)c3)cc2)ncn1" — what was its log10(GI50)?
(A) 0.60

(Q) Param item: "CC(=O)Nc1cc(Oc2ccc(NC(=O)Cc3ccc(Cl)c(Cl)c3)cc2)ncn1"
(A) 1.58

(Q) Param item: "CC(=O)Nc1cc(Oc2ccc(NC(=O)Cc3ccc(Cl)cc3Cl)cc2)ncn1"
(A) 0.60

Entry source: ChEMBL document CHEMBL5260841
